Target: full-length human GLP-1R with an N-terminal FLAG tag, overexpressed on HEK-293T cells (human, UniProt P43220 24-463)
Assay: cell-based or functional assay
Starred links: 1 amine or outer side, 2 acyl side, 3 side chain; linkers in the order of their positions; H or OH if unused. Non-standard residues stand in square brackets, D forms with d. Groups on a side chain read outwards from the residue. No end group written: not given here. *: point of attachment. C18 diacid = O=C(O)CCCCCCCCCCCCCCCCC(=O)*; γGlu = O=C(O)[C@H](CCC(=O)[*:2])N[*:1]; NMeY = CN[C@@H](Cc1ccc(O)cc1)C(=O)O; Stearoyl = CCCCCCCCCCCCCCCCCC(=O)*; AEEA = NCCOCCOCC(=O)O; Aib = CC(C)(N)C(=O)O
Recorded Human GLP1R cAMP EC50, HEK293T by entry
measurement_label: Human GLP1R cAMP EC50, HEK293T (nM)

[NMeY]AEGTFISDYSI[Aib]LDR[Aib]AQ[Aib]K([AEEA-AEEA-γGlu-γGlu-C18 diacid])FVNWLLAQRG-OH [Compound No. 218] :: 38
H-Y[Aib]EGTFISDYSIALDKIK([AEEA-AEEA-γGlu-C18 diacid])Q[Aib]DFVEWLLAQRG-OH [Compound No. 160] :: 537
[NMeY][Aib]EGTFISDYSIALDR[Aib]HQQNFVNWLLAQK([AEEA-AEEA-γGlu-C18 diacid]) [Compound No. 191] :: 97.7
YXEGTFISDYSIAXDKAAQQXFVEWLLAQRG (N-terminus H; Aib at 2, 14; Km at 21 = Lys(2OEGgEgE-C18DA); C-terminus OH) [Compound No. 157] :: 437
[NMeY][Aib]EGTFISDYSIALDR[Aib]AQ[Aib]K([AEEA-AEEA-γGlu-γGlu-C18 diacid])FVNWLLAQRG-OH [Compound No. 213] :: 40.7
[NMeY][Aib]EGTFISDYSIALDRAAQAK([AEEA-AEEA-γGlu-γGlu-C18 diacid])FVNWLLAQRG-OH [Compound No. 216] :: 79.4
[NMeY][Aib]EGTFISDYSIALDR[Aib]HQ[Aib]NFVNWK([AEEA-AEEA-γGlu-C18 diacid])LAQR-NH2 [Compound No. 186] :: 1000
[NMeY][Aib]EGTFISDYSI[Aib]LDR[Aib]AQ[Aib]K([AEEA-AEEA-γGlu-γGlu-Stearoyl])FVNWLLAQRG-OH [Compound No. 202] :: 2.51
[NMeY][Aib]EGTFISDYSI[Aib]LDR[Aib]AQ[Aib]K([AEEA-AEEA-γGlu-C18 diacid])FVNWLLAQRG-OH [Compound No. 208] :: 9.33
[NMeY][Aib]EGTFISDYSI[Aib]LDR[Aib]AA[Aib]K([AEEA-AEEA-γGlu-γGlu-C18 diacid])FVNWLLAQRG-OH [Compound No. 212] :: 42.7
